# Target or test system: Aldo-keto reductase family 1 member B1 (Bos taurus, UniProt P16116)
# Assay protocol: Evaluated in vitro for the inhibition of Aldose reductase.
Response field class: string, computed from recorded IC50 by ranges bucket A = under 0.02 µM, bucket B = from 0.02 µM up to 0.1 µM, bucket C = 0.1 µM and over

Check out these entries, answers already filled in.
[[record]]
query_smiles = "COc1c(/C=C2\\SC(=S)N(CC(=O)O)C2=O)ccc2ccccc12"
answer_label = "bucket A"

[[record]]
query_smiles = "COc1ccc2cc(/C=C3\\SC(=S)N(CC(=O)O)C3=O)ccc2c1"
answer_label = "bucket B"

[[record]]
query_smiles = "O=C(O)CN1C(=O)S/C(=C\\c2ccc3ccccc3c2Br)C1=O"
answer_label = "bucket B"

[[record]]
query_smiles = "O=C(O)CN1C(=O)S/C(=C\\c2cc3ccccc3cc2Cl)C1=O"
answer_label = "bucket B"

[[record]]
query_smiles = "O=C(O)CN1C(=O)/C(=C/c2ccc3ccccc3c2[N+](=O)[O-])SC1=S"
answer_label = "bucket B"

[[record]]
query_smiles = "O=C(O)CN1C(=O)/C(=C/c2cc3ccccc3cc2Br)SC1=S"
answer_label = "bucket A"


Please report the category associated with O=C(O)CN1C(=O)S/C(=C\c2ccc3ccccc3c2)C1=O , nothing else.
bucket C

Which category does the recorded IC50 put O=C(O)CN1C(=O)/C(=C/c2ccc3ccccc3c2Br)SC1=S in?
bucket A

Category of COc1cc2ccccc2cc1/C=C1\SC(=O)N(CC(=O)O)C1=O :
bucket C

Kindly state the category for this molecule: O=C(O)Cc1nn(Cc2ccc(Br)cc2F)c(=O)c2ccccc12
bucket A

Which bin, given its IC50, does O=C(O)CN1C(=O)/C(=C/c2ccc3ccccc3c2)SC1=S occupy?
bucket B

Category lookup for the molecule O=C(O)CN1C(=O)S/C(=C\c2cc3ccccc3cc2Br)C1=O
bucket C

Which bin should I file COc1c(/C=C2\SC(=O)N(CC(=O)O)C2=O)ccc2ccccc12 under?
bucket C

These data points were gathered from ChEMBL document CHEMBL1131187.
